# Assay Target: Nucleotide-binding oligomerization domain-containing protein 1 (Homo sapiens, UniProt Q9Y239)
# Sequence (Q9Y239 whole entry): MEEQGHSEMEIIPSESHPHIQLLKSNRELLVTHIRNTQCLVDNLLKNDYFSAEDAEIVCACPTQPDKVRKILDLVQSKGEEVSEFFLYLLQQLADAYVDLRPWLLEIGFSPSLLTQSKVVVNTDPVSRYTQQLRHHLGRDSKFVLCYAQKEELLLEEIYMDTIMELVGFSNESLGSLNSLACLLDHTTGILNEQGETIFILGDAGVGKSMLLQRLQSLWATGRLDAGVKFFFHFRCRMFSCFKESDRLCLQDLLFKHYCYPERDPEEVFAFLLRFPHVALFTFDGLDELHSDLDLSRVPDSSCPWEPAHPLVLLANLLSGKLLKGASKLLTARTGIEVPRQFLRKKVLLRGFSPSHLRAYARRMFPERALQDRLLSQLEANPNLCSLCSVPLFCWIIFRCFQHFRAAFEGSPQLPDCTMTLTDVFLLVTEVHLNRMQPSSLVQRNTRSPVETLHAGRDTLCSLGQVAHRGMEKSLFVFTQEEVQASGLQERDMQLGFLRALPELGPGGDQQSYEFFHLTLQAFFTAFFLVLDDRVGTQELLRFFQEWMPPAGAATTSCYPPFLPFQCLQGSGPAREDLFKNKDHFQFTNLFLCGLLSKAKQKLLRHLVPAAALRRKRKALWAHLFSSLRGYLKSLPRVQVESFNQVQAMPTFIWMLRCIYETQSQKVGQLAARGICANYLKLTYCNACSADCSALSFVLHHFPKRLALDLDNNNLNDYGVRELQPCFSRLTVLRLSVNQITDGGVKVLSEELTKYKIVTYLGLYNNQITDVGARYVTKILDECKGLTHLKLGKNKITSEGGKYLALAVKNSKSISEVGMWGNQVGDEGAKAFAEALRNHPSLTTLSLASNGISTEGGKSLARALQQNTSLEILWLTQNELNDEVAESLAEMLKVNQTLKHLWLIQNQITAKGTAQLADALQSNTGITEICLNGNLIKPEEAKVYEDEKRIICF
Documented IC50 across a set of compounds

Solved entries:
# Compound, IC50
rows = [
    ("Cc1cc(SCC(=O)OCC(=O)C(C#N)c2nc3ccccc3[nH]2)c(C)cc1Br (stereo not given)", "> 20 µM"),
    ("Cc1cc(Br)ccc1SCC(=O)OCC(=O)C(C#N)c1nc2ccccc2[nH]1 (stereo not given)", "> 20 µM"),
    ("CCCOC1=CC(=O)C(C=NNC(=S)Nc2ccccc2[N+](=O)[O-])C=C1 (stereo not given)", "7.73 µM"),
    ("Cc1ccc(O)c(/N=C/C2=CC(Cc3ccccc3)C=C([N+](=O)[O-])C2=O)c1 (stereo not given)", "> 20 µM"),
]

IN: Supply IC50 value. Item: N#CC(C(=O)COC(=O)CSc1ccc(Cl)cc1)c1nc2ccccc2[nH]1 (stereo not given)
OUT: > 20 µM

* * *

# Assay Target: Nucleotide-binding oligomerization domain-containing protein 1 (Homo sapiens, UniProt Q9Y239)
# Sequence (Q9Y239 whole entry): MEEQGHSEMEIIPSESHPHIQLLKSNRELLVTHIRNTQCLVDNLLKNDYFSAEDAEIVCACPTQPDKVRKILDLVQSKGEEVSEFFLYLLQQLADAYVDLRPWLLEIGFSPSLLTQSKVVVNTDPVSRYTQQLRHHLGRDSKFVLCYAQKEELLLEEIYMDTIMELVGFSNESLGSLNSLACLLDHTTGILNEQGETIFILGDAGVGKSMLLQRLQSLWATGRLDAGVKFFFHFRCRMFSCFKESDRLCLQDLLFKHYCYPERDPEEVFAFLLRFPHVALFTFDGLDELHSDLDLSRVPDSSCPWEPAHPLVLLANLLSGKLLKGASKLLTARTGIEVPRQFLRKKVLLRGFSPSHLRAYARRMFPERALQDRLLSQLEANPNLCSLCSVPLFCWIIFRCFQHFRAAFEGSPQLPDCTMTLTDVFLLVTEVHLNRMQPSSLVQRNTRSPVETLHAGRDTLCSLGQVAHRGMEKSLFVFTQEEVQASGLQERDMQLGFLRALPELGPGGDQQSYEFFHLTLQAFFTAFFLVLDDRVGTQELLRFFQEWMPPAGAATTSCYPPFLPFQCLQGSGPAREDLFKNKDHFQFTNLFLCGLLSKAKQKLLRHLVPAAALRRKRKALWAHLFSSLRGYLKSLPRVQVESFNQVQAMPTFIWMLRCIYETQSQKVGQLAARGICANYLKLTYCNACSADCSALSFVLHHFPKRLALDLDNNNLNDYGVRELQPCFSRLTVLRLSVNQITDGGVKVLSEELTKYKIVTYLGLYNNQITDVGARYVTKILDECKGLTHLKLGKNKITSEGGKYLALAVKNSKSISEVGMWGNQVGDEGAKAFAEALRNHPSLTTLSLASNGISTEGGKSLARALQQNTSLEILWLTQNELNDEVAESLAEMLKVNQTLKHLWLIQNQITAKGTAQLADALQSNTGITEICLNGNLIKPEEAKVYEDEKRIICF
IC50: recorded values

IN: Hello, please tell me recorded IC50 for this one: CCOC1=CC=CC(C=NNC(=S)Nc2ccccc2[N+](=O)[O-])C1=O (stereo not drawn)
OUT: 8.23 µM

IN: Specify IC50 for N#CC(C(=O)COC(=O)CSc1ccc2ccccc2c1)c1nc2ccccc2[nH]1 (stereo not drawn) and stop.
OUT: > 20 µM

IN: Provide one value: measured IC50 of Cc1ccc(C)c(SCC(=O)OCC(=O)C(C#N)c2nc3ccccc3[nH]2)c1 (stereo not drawn)
OUT: > 20 µM
